Value source: patent US20250195513A1

Target: IRAK4 (Homo sapiens, UniProt Q9NWZ3)
Construct: endogenous in cells; host or cells: Karpas299
Sequence (Q9NWZ3 whole entry): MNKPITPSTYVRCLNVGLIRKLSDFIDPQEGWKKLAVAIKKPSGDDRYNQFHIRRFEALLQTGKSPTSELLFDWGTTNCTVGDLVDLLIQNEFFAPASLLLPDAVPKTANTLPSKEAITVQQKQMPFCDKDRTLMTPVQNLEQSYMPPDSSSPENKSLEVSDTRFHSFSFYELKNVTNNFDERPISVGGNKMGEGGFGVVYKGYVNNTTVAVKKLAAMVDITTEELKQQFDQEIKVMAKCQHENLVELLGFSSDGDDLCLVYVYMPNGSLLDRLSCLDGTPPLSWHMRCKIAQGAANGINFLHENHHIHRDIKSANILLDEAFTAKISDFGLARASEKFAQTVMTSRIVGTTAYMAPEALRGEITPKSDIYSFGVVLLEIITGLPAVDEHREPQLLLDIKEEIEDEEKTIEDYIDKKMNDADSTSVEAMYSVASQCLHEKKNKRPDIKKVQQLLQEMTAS
Assay: IRAK4 Degradation Assay (Karpas299, HTRF/TR-FRET)
Type: cell-based
Conditions: Karpas-299 cells, 5 h treatment; read-out: IRAK4 in Karpas-299 (5 h) DC50
Experimental: IRAK4 degradation was measured using a TR-FRET-based method (Degorce, François, et al. Current chemical genomics. 2009, 3: 22). […] IRAK4 level was quantitated using the HTRF kit as described by the manufacturer manual (Cisbio). FRET signals were measured using a PHERAstar FSX reader (BMG Labtech). […] The inhibition (degradation) percentage of the compound was calculated by the following equation: […]
Below, each entry is listed alongside its reported DC50.
recorded endpoint: DC50 (nM)

structure string	tested on	data value
CC(C)(O)c1cc2nn([C@H]3CC[C@H](N4CCN([C@H]5C[C@H](c6ccc(N[C@H]7CCC(=O)NC7=O)cc6)C5)CC4)CC3)cc2cc1NC(=O)c1ccc2cc(C#N)cnn12	IRAK4 (Homo sapiens, UniProt Q9NWZ3)	9.8
NC(=O)c1nn([C@H]2CC[C@H](N3CCN(C(=O)C4CN(c5cc(F)c([C@H]6CCC(=O)NC6=O)c(F)c5)C4)CC3)CC2)cc1NC(=O)c1coc(-c2ccnc(NCC(F)(F)F)c2)n1	IRAK4 (Homo sapiens, UniProt Q9NWZ3)	2.4
COC[C@@H]1CN([C@H]2CC[C@H](n3cc4cc(NC(=O)c5ccc6cc(C#N)cnn56)c(C(C)(C)O)cc4n3)CC2)CCN1C1CCN(c2cc(F)c([C@H]3CCC(=O)NC3=O)c(F)c2)CC1	IRAK4 (Homo sapiens, UniProt Q9NWZ3)	1.2
